The reported measurements were obtained from patent US8486939B2.

# targetOfAssay: p110β/p85 (Homo sapiens)
# Sequence (P42338 whole entry, species assumed): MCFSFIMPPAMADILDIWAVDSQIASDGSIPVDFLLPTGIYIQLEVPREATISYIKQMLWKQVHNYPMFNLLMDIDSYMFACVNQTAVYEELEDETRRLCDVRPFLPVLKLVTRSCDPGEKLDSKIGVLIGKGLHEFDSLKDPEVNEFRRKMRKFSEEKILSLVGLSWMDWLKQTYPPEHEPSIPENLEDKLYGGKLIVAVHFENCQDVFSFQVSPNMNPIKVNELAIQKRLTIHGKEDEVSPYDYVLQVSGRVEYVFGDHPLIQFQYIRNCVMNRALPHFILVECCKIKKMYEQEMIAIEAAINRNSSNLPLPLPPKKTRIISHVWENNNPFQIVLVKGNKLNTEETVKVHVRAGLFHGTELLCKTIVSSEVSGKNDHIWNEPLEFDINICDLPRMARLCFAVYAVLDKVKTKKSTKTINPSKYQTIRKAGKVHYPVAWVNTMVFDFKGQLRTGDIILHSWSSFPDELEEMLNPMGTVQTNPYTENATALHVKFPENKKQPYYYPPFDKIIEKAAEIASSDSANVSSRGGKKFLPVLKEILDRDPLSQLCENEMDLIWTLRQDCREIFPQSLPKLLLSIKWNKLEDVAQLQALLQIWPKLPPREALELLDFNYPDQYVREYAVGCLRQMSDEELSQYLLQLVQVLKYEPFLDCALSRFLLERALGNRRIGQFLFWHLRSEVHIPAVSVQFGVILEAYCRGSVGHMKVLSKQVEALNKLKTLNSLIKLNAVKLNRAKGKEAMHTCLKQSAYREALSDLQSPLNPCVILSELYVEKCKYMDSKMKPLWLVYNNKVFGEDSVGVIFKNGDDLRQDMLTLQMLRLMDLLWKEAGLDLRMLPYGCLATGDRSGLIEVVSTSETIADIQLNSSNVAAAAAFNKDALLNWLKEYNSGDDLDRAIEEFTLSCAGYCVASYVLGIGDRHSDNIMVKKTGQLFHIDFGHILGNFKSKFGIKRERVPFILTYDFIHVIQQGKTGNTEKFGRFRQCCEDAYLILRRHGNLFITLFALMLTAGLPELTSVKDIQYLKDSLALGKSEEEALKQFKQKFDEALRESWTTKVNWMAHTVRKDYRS
# Sequence (P27986 whole entry partner, species assumed): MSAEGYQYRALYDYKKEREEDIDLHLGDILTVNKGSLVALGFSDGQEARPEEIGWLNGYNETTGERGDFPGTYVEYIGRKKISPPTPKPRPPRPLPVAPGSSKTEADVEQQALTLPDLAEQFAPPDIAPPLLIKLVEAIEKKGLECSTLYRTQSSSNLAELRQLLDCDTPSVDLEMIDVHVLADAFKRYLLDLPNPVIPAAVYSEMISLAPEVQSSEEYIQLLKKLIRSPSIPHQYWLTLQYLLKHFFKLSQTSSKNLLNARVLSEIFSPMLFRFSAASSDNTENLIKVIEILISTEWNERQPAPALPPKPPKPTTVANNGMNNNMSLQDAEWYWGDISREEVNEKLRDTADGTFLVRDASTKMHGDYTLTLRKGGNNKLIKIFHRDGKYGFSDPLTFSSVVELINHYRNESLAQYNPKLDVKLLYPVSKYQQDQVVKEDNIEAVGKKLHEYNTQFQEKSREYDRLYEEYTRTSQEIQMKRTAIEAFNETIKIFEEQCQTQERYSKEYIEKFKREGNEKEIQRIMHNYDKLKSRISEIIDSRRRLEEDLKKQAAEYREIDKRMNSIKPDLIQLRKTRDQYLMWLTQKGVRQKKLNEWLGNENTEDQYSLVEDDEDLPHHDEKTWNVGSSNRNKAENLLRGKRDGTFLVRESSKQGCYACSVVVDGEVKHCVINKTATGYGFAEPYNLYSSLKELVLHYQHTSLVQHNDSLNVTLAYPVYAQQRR
# assayText: Inhibition of isolated enzyme (lipid kinase assay, [γ33P]ATP, TLC)
# experimentalParameters: recombinant enzyme, 100 μM ATP, 1 hr room temperature, average of two experiments
Readings of IC50 for the listed molecules

| chemicalStructure | resultType | result |
| --- | --- | --- |
| FC(F)c1nc2ccccc2n1-c1nc(Nc2ccncc2)nc(N2CCOCC2)n1 | IC50 | 100 to 1000 nM |
| FC(F)c1nc2ccccc2n1-c1nc(Sc2ccccc2)nc(N2CCOCC2)n1 | IC50 | > 10000 nM |
| COc1cc(Nc2nc(N3CCOCC3)nc(-n3c(C(F)F)nc4c(OC)cccc43)n2)ncn1 | IC50 | 100 to 1000 nM |
| FC(F)c1nc2ccccc2n1-c1nc(NCc2ccccc2)nc(N2CCOCC2)n1 | IC50 | < 100 nM |
| CNc1ccc(Nc2nc(N3CCOCC3)nc(-n3c(C(F)F)nc4c(OC)cccc43)n2)cn1 | IC50 | 100 to 1000 nM |

Task item: # lookup: IC50 of `O=S(=O)(c1ccccc1)c1nc(N2CCOCC2)nc(-n2c(C(F)F)nc3ccccc32)n1`
Reply: 1000 to 10000 nM

Task item: # lookup: IC50 of `COc1ccncc1Nc1nc(N2CCOCC2)nc(-n2c(C(F)F)nc3c(OC)cccc32)n1`
Reply: 100 to 1000 nM

Task item: # lookup: IC50 of `CN(c1ccccc1)c1nc(N2CCOCC2)nc(-n2c(C(F)F)nc3ccccc32)n1`
Reply: 100 to 1000 nM
